src = patent US20230374114A1

Target: Biotinylated SARS-CoV-2 S1 protein (ACRO, S1N-C82E8) (UniProt P0DTC2 16-685)
Assay: BLI
Entries and their pKd values follow.
The meaning of pKd here: minus log10 of the concentration in molar units.

In the examples that follow, each entry is paired with its recorded pKd.
RBD-R3-E1-B3 Ab (Ab_32) (scFv, V domains shown) VH: QVQLVQSGAEVKKPGESLKISCKGSGYSFTSYWIGWVRQMPGKGLEWMGIIYPGDSDTRYSPSFQGQVTISADKSISTAYLQWSSLKASDTAMYYCARGWQWHDYWGQGTLVTVSS VL: QTVVTQEPAVSVALGQTVRITCQGDSLRSYYASWYQQKPGQAPVLVVYDKDKRPSGIPDRFSGSTSGNTASLTITGAQAEDEADYYCNSRDRSDNHVVFGGGTKLTVL ... 9.77
Ab_18 (scFv, V domains shown) VH: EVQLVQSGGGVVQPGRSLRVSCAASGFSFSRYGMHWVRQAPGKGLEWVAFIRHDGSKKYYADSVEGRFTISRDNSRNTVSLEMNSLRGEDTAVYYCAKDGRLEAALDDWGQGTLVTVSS VL: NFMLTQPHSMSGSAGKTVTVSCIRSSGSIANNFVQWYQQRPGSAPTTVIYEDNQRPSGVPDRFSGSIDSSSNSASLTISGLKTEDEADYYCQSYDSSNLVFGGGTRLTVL ... 9.92

pKd for Ab 21 (scFv, V domains shown) VH: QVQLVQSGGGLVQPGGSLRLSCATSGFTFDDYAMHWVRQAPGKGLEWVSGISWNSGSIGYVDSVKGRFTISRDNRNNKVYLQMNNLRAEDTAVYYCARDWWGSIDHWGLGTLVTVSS VL: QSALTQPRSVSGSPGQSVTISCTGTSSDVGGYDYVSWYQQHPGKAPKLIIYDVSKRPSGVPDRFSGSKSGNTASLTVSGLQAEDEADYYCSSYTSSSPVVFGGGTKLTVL ?
8.89

pKd for Ab 23 scFv-Fc (scFv, V domains shown) VH: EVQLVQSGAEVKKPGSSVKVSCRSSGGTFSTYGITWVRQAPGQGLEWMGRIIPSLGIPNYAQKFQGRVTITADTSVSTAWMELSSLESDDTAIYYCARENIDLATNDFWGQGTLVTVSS VL: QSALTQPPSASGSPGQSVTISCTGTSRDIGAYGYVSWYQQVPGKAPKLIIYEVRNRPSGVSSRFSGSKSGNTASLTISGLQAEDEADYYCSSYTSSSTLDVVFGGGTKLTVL ?
9.47
